Just for reference, patent US9156856B2 is where these values come from.

Parameter 'readout' = pKi; parameter 'system' = Bcl-2 (Homo sapiens (Human), UniProt P10415).
Sequence (P10415 whole entry): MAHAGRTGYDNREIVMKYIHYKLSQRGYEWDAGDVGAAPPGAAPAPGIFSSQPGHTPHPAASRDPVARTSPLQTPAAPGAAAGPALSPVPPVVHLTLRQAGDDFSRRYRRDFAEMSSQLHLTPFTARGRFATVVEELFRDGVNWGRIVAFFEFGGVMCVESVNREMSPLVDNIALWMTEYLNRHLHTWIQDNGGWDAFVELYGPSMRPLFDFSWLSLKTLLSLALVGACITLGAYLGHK
// field semantics: pKi = negative decimal log of concentration (mol/L)

### Prompt Form: Entry = `Cc1nsc(S(=O)(=O)NC(=O)c2ccc(N3CCN(Cc4ccccc4-c4ccc(Cl)cc4)CC3)cc2)c1Cl` | System = Bcl-2 (Homo sapiens (Human), UniProt P10415) | pKi = ____
### Response 6.47

### Prompt Enter reported pKi observed with Bcl-2 (Homo sapiens (Human), UniProt P10415) for `Cc1nn(CCCl)c(C)c1S(=O)(=O)NC(=O)c1ccc(N2CCN(Cc3ccccc3-c3ccc(Cl)cc3)CC2)cc1`
### Response 6.36

### Prompt Any idea what pKi came out for `O=C(NS(=O)(=O)c1csc(C(F)(F)F)c1-c1ccccc1)c1ccc(N2CCN(Cc3ccccc3-c3ccc(Cl)cc3)CC2)cc1` on Bcl-2 (Homo sapiens (Human), UniProt P10415)?
### Response 7.42

### Prompt Value wanted: pKi (Bcl-2 (Homo sapiens (Human), UniProt P10415)) of entry `CC(C)N(C)CC[C@H](CSc1ccccc1)Nc1sc(S(=O)(=O)NC(=O)c2ccc(N3CCN(CC4=C(c5ccc(Cl)cc5)CCC(C)(C)C4)CC3)cc2)cc1[N+](=O)[O-]`
### Response 9.51

### Prompt Query pKi on Bcl-2 (Homo sapiens (Human), UniProt P10415) for `Cc1cc(C)n2nc(S(=O)(=O)NC(=O)c3ccc(N4CCN(CC5=C(c6ccc(Cl)cc6)CC(C)(C)CC5)CC4)cc3Oc3cccc(Cl)c3)nc2n1`
### Response 9.39

### Prompt Param readout= pKi; system= Bcl-2 (Homo sapiens (Human), UniProt P10415); entry= `Cc1nc(OCC2(F)CCOCC2)sc1S(=O)(=O)NC(=O)c1ccc(N2CCN(CC3=C(c4ccc(Cl)cc4)CC(C)(C)CC3)CC2)cc1Oc1cnc2[nH]ccc2c1` ; returns value.
### Response 8.17

### Prompt Recall the recorded pKi for `CC(=O)N(CCSc1ccccc1)C1CCN(S(=O)(=O)NC(=O)c2ccc(N3CCN(Cc4ccccc4-c4ccc(Cl)cc4)CC3)cc2)CC1` with Bcl-2 (Homo sapiens (Human), UniProt P10415) and state it.
### Response 6.75

### Prompt Could you share what pKi was measured for `O=C(NS(=O)(=O)c1nc2ccccc2s1)c1ccc(N2CCN(Cc3ccccc3-c3ccc(Cl)cc3)CC2)cc1` , tested on Bcl-2 (Homo sapiens (Human), UniProt P10415)?
### Response 6.89

### Prompt Give recorded pKi with Bcl-2 (Homo sapiens (Human), UniProt P10415) for the following compound: `COC(=O)c1ccc(S(=O)(=O)NC(=O)c2ccc(N3CCN(Cc4ccccc4-c4ccc(Cl)cc4)CC3)cc2)n1C`
### Response 6.73

### Prompt API: value(readout= pKi, system= Bcl-2 (Homo sapiens (Human), UniProt P10415), query= `COC1(Cc2cccc(C)c2)CCN(c2ccc(C(=O)NS(=O)(=O)c3cc([N+](=O)[O-])c(N[C@H](CCN(C)C)CSc4ccccc4)s3)cc2)CC1` )
### Response 7.08

### Prompt Kindly state the measured pKi obtained for `CC(=O)Nc1nc(C)c(S(=O)(=O)NC(=O)c2ccc(N3CCN(Cc4ccccc4-c4ccc(Cl)cc4)CC3)cc2)s1` with Bcl-2 (Homo sapiens (Human), UniProt P10415).
### Response 6.75

### Prompt Record `Cc1nc(OCC2(F)CCOCC2)sc1S(=O)(=O)NC(=O)c1ccc(N2CCN(CC3=C(c4ccc(Cl)cc4)CC(C)(C)CC3)CC2)cc1Oc1cccc2[nH]ncc12` : what is its pKi with Bcl-2 (Homo sapiens (Human), UniProt P10415)?
### Response 8.79

### Prompt Provide the documented pKi with Bcl-2 (Homo sapiens (Human), UniProt P10415) as the system for `Cc1c(S(=O)(=O)NC(=O)c2ccc(N3CCN(Cc4ccccc4-c4ccc(Cl)cc4)CC3)cc2Oc2ccccc2)sc2ccc(Cl)cc12`
### Response 7.69

### Prompt Return pKi measured with Bcl-2 (Homo sapiens (Human), UniProt P10415) given this compound: `O=C(NS(=O)(=O)N1CCOCC1)c1ccc(N2CCN(Cc3ccccc3-c3ccc(Cl)cc3)CC2)cc1`
### Response 6.39

### Prompt Recorded pKi for `CC1(C)CCC(CN2CCN(c3ccc(C(=O)NS(=O)(=O)c4cc([N+](=O)[O-])c(NCCCN5CCOCC5)s4)c(Oc4ccc5[nH]ccc5c4)c3)CC2)=C(c2ccc(Cl)cc2)C1` with Bcl-2 (Homo sapiens (Human), UniProt P10415), please?
### Response 8.68

### Prompt Please tell me: pKi of `O=C(NS(=O)(=O)c1ccc(-c2ccno2)o1)c1ccc(N2CCN(Cc3ccccc3-c3ccc(Cl)cc3)CC2)cc1` , system Bcl-2 (Homo sapiens (Human), UniProt P10415)?
### Response 6.86

### Prompt What measured pKi is associated with `Cc1noc(C)c1S(=O)(=O)NC(=O)c1ccc(N2CCN(Cc3ccccc3-c3ccc(Cl)cc3)CC2)cc1` on Bcl-2 (Homo sapiens (Human), UniProt P10415)?
### Response 6.36

### Prompt // lookup pKi | system=Bcl-2 (Homo sapiens (Human), UniProt P10415) | key= `Cc1nc(OC[C@@H]2CN(C(=O)OC(C)(C)C)CCO2)sc1S(=O)(=O)NC(=O)c1ccc(N2CCN(CC3=C(c4ccc(Cl)cc4)CC(C)(C)CC3)CC2)cc1Oc1cnc2[nH]ccc2c1`
### Response 7.33

### Prompt Could you share what pKi was measured for `CN(C)CC[C@H](CSc1ccccc1)Nc1sc(S(=O)(=O)NC(=O)c2ccc(N3CCN(CC=C(c4ccccc4)c4ccccc4)CC3)cc2)cc1[N+](=O)[O-]` , tested on Bcl-2 (Homo sapiens (Human), UniProt P10415)?
### Response 7.29

### Prompt Item `CC(C)N(C)CC[C@H](CSc1ccccc1)Nc1sc(S(=O)(=O)NC(=O)c2ccc(N3CCN(CC4=C(c5ccc(Cl)cc5)CCCC4)CC3)cc2)cc1[N+](=O)[O-]` with Bcl-2 (Homo sapiens (Human), UniProt P10415) - pKi?
### Response 10.19

### Prompt Which measured pKi belongs to `CC(=O)/N=c1\sc(S(=O)(=O)NC(=O)c2ccc(N3CCN(Cc4ccccc4-c4ccc(Cl)cc4)CC3)cc2)nn1C` , tested on Bcl-2 (Homo sapiens (Human), UniProt P10415)?
### Response 6.13

### Prompt Return pKi measured with Bcl-2 (Homo sapiens (Human), UniProt P10415) given this compound: `Cc1cc(C)n2nc(S(=O)(=O)NC(=O)c3ccc(N4CCN(CC5=C(c6ccc(Cl)cc6)CC(C)(C)CC5)CC4)cc3Oc3cc4cc[nH]c4c(F)c3F)nc2n1`
### Response 10.41

### Prompt What reported pKi corresponds to `Cc1nc(C)c(S(=O)(=O)NC(=O)c2ccc(N3CCN(Cc4ccccc4-c4ccc(Cl)cc4)CC3)cc2)s1` on Bcl-2 (Homo sapiens (Human), UniProt P10415)?
### Response 6.55

### Prompt Short answer please: pKi, Bcl-2 (Homo sapiens (Human), UniProt P10415), entry `Cc1cc(C)n2nc(S(=O)(=O)NC(=O)c3ccc(N4CCN(Cc5ccccc5-c5ccc(Cl)cc5)CC4)cc3)nc2n1`
### Response 7.32

###

Provide the reported pKi of each item.
For clarity, pKi is expressed as the negative log10 of concentration in mol/L.

### Prompt Tell me reported pKi for CCC(CC)NC(=O)c1nnc(S(=O)(=O)NC(=O)c2ccc(N3CCN(Cc4ccccc4-c4ccc(Cl)cc4)CC3)cc2)s1 [Example 28] , tested with Bcl-2 (Homo sapiens (Human), UniProt P10415).
### Response 6.38

### Prompt # returns recorded pKi (system: Bcl-2 (Homo sapiens (Human), UniProt P10415)) for CN(C)CCCNc1sc(S(=O)(=O)NC(=O)c2ccc(N3CCN(CC4=C(c5ccc(Cl)cc5)CC(C)(C)CC4)CC3)cc2Oc2ccc3[nH]ccc3c2)cc1[N+](=O)[O-] [Example 34]
### Response 8.75

### Prompt Enter reported pKi observed with Bcl-2 (Homo sapiens (Human), UniProt P10415) for O=C(NS(=O)(=O)c1cccs1)c1ccc(N2CCN(Cc3ccccc3-c3ccc(Cl)cc3)CC2)cc1 [Example 19]
### Response 6.63

### Prompt State its pKi on Bcl-2 (Homo sapiens (Human), UniProt P10415): Cc1cc(-c2oncc2S(=O)(=O)NC(=O)c2ccc(N3CCN(Cc4ccccc4-c4ccc(Cl)cc4)CC3)cc2)n(C)n1 [Example 23]
### Response 6.35

### Prompt Hello, I am looking for reported pKi with Bcl-2 (Homo sapiens (Human), UniProt P10415) for O=C(NCc1ccc(S(=O)(=O)NC(=O)c2ccc(N3CCN(Cc4ccccc4-c4ccc(Cl)cc4)CC3)cc2)s1)c1ccccc1 [Example 12] . Could you help?
### Response 6.41

### Prompt Provide the documented pKi with Bcl-2 (Homo sapiens (Human), UniProt P10415) as the system for CN(C)CC[C@H](CSc1ccccc1)Nc1sc(S(=O)(=O)NC(=O)c2ccc(N3CCC(=Cc4ccccc4C(F)(F)F)CC3)cc2)cc1[N+](=O)[O-] [Example 36]
### Response 6.53

### Prompt Notebook: pull reported pKi for Bcl-2 (Homo sapiens (Human), UniProt P10415), entry O=C(NS(=O)(=O)c1cc([N+](=O)[O-])c(N2CCCCC2)s1)c1ccc(N2CCN(Cc3ccccc3-c3ccc(Cl)cc3)CC2)cc1 [Example 30]
### Response 6.57

### Prompt What is its pKi for Bcl-2 (Homo sapiens (Human), UniProt P10415)? Entry: Cc1nc(OC[C@@H]2CN(C(=O)OC(C)(C)C)CCO2)sc1S(=O)(=O)NC(=O)c1ccc(N2CCN(CC3=C(c4ccc(Cl)cc4)CC(C)(C)CC3)CC2)cc1Oc1cccc2[nH]ncc12 [Example 47]
### Response 7.69

### Prompt What measured pKi is associated with Cc1nn(C)c(Cl)c1S(=O)(=O)NC(=O)c1ccc(N2CCN(Cc3ccccc3-c3ccc(Cl)cc3)CC2)cc1 [Example 29] on Bcl-2 (Homo sapiens (Human), UniProt P10415)?
### Response 6.47

### Prompt Can you look up pKi on Bcl-2 (Homo sapiens (Human), UniProt P10415) for COC1(CC2CCCCC2)CCN(c2ccc(C(=O)NS(=O)(=O)c3cc([N+](=O)[O-])c(N[C@H](CCN(C)C)CSc4ccccc4)s3)cc2)CC1 [Example 1] ?
### Response 7.29

### Prompt Lookup: pKi / Bcl-2 (Homo sapiens (Human), UniProt P10415) / O=C(NS(=O)(=O)c1c(Cl)nc2sccn12)c1ccc(N2CCN(Cc3ccccc3-c3ccc(Cl)cc3)CC2)cc1 [Example 13]
### Response 6.41

### Prompt Query for Bcl-2 (Homo sapiens (Human), UniProt P10415): what pKi does the record show for CC(C)N(C)CC[C@H](CSc1ccccc1)Nc1sc(S(=O)(=O)NC(=O)c2ccc(N3CCN(Cc4ccccc4-c4ccc(Cl)cc4)CC3)cc2)cc1[N+](=O)[O-] [Example 7] ?
### Response 10.08

### Prompt Give pKi (Bcl-2 (Homo sapiens (Human), UniProt P10415)) of the following compound: Cc1nc(OCC2(F)CCOCC2)sc1S(=O)(=O)NC(=O)c1ccc(N2CCN(CC3=C(c4ccc(Cl)cc4)CC(C)(C)CC3)CC2)cc1Oc1cccc2[nH]cnc12 [Example 46]
### Response 8.76

### Prompt Please provide the recorded pKi for Cc1c(S(=O)(=O)NC(=O)c2ccc(N3CCN(Cc4ccccc4-c4ccc(Cl)cc4)CC3)cc2)sc2ccc(F)cc12 [Example 17] , tested on Bcl-2 (Homo sapiens (Human), UniProt P10415).
### Response 6.45
